Target: T1, cynomolgus monkey C16orf54 (cynomolgus monkey (Macaca fascicularis), UniProt Q6UWD8 1-224 (human entry))
T1 construct: also called cyno C16orf54; cyno-C16orf54
T1 chain: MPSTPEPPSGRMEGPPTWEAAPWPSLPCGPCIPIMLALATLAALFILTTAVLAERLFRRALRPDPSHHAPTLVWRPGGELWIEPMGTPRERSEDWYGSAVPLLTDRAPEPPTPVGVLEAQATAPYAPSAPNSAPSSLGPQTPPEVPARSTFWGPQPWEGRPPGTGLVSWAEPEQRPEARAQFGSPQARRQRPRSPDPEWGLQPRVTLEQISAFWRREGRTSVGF
Test: flow cytometry, 10 ug/ml antibody, F279-cyno-C16orf54 cells
RECORDED METRIC: Median fold change relative to IgG control (fold)
Hi! Could you send only the number? It should be in fold, unit omitted.

Query: Please look up its Median fold change relative to IgG control: R29-8-28C (antibody, V domains shown, Murine monoclonal antibody from a hybridoma) VH: EVKLVESGGGVVKPGGSLTLSCAASGFTFSNYAVSWFRQTPEKRLEWVASITSGGRTYYPDSMKGRFTISRDNARNILYLQMSSLRSEDTAIYYCGRGWDENDYWGQGTTLTVSS VL: DVVMTQTPLSLPVSLGDQASISCRSSQSLVYSNGNTYLHWYLQKPGQSPKLLIYKVSNRFSGVPDRFSGSGSGTDFTLKINRVEAEDLGVYFCSQTTHVPWTFGGGTKLEIK
Response: 3.3

Data origin, for the record: patent US20150231240A1
